Tested on: Vero cells
measurement.conditions: read-out: CC50, NR; Vero, SARSCoV test; Neutral Red
property: CC50

C[C@@]1(F)[C@H](O)[C@@H](CO)O[C@H]1n1ccc(N)nc1=O > 100 µM

----------
Test system: HepG2 cells
experiment.notes: Mitochondria toxicity assay
Format: cell-based
measurement.conditions: Homo sapiens, 168 h, 7 days, read-out: mtDNA Synthesis (IC50)
pIC50: −log10 of the molar value.
Reported pIC50 values for the following compounds.
property: pIC50

compound	property	measured.value
C[C@@]1(F)[C@H](O)[C@@H](CO)O[C@H]1n1ccc(N)nc1=O	pIC50	< 4.60
C[C@@]1(O)[C@H](O)[C@@H](CO)O[C@H]1n1ccc(N)nc1=O [2′-C-methylcytidine]	pIC50	< 4.60

----------
experiment.notes: Cytotoxicity assay (MTS), Huh7
Assay type: cell-based
measurement.conditions: human, Huh7 cells

compound	CC50 at 4 days
C[C@@]1(O)[C@H](O)[C@@H](CO)O[C@H]1n1ccc(N)nc1=O [2′-C-methylcytidine]	> 100 µM
C[C@@]1(F)[C@H](O)[C@@H](CO)O[C@H]1n1ccc(N)nc1=O	> 100 µM
C[C@@]1(O)[C@H](O)[C@@H](CO)O[C@H]1n1cnc2c(N)ncnc21 [2′-C-methyladenosine]	30 µM

----------
Tested on: Rhinovirus Type 2
experiment.notes: Antiviral activity, Rhinovirus Type 2 in KB cells
Format: cell-based
measurement.conditions: Enterovirus; Rhinovirus Type 2, KB; read-out: EC50, CPE
pEC50: −log10 of the molar value.
property: pEC50

C[C@@]1(F)[C@H](O)[C@@H](CO)O[C@H]1n1ccc(N)nc1=O 4.60

----------
System: VEE
experiment.notes: organism not typed
Type: cell-based
measurement.conditions: Vero, read-out: EC50, NR
property: EC50

C[C@@]1(F)[C@H](O)[C@@H](CO)O[C@H]1n1ccc(N)nc1=O > 100 µM

----------
experiment.notes: Pharmacokinetics in Rhesus monkeys
Format: in vivo
measurement.conditions: single oral dose 33.3 mg/kg, Mean ± SD, preliminary
property: Cmax (µM)

C[C@@]1(F)[C@H](O)[C@@H](CO)O[C@H]1n1ccc(N)nc1=O 9.6

----------
test.target: HCV 1b NS5B polymerase, Wild-Type NS5B (Hepatitis C virus genotype 1b, UniProt Q9WMX2)
Sequence (Q9WMX2 2420-3010): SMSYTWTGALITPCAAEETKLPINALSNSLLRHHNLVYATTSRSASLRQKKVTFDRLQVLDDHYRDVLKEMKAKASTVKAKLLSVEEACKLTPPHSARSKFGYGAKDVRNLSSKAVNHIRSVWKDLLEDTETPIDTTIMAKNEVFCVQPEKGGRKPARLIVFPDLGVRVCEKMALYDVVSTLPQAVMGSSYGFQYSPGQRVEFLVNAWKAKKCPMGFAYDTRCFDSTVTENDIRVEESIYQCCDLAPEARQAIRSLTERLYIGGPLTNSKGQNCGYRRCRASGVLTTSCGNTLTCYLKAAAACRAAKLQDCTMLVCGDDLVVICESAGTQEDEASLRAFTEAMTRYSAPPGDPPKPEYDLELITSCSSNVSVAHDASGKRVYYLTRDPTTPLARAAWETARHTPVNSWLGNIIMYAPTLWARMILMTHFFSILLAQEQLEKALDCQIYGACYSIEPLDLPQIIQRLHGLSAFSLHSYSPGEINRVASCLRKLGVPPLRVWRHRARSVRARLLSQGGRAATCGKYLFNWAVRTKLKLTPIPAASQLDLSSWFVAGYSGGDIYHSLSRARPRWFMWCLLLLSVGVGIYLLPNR
measurement.conditions: IC50, Wild-Type NS5B; batch 1
property: IC50 (nM)

C[C@@]1(F)[C@H](O)[C@@H](COP(=O)(O)OP(=O)(O)OP(=O)(O)O)O[C@H]1n1ccc(N)nc1=O 1700

----------
System: Vero cells
measurement.conditions: African green monkey
property: CC50

C[C@@]1(F)[C@H](O)[C@@H](CO)O[C@H]1n1ccc(N)nc1=O > 100 µM

----------
experiment.notes: in vitro
measurement.conditions: human
property: CC50

C[C@@]1(F)[C@H](O)[C@@H](CO)O[C@H]1n1ccc(N)nc1=O > 100 µM

----------
test.target: HCV 1b NS5B polymerase, Wild-Type NS5B (Hepatitis C virus genotype 1b, UniProt Q9WMX2)
measurement.conditions: inhibitory concentration 50%, range, NS5B polymerase assay
property: IC50

C[C@@]1(F)[C@H](O)[C@@H](COP(=O)(O)OP(=O)(O)OP(=O)(O)O)O[C@H]1n1ccc(N)nc1=O 1.7 to 7.7 µM

----------
experiment.notes: Cytotoxicity assay (MTS), HepG2
Type: cell-based
measurement.conditions: human, HepG2 cells
property: CC50 at 4 days (µM)

compound	measured.value
C[C@@]1(O)[C@H](O)[C@@H](CO)O[C@H]1n1cnc2c(N)ncnc21 [2′-C-methyladenosine]	58
C[C@@]1(F)[C@H](O)[C@@H](CO)O[C@H]1n1ccc(N)nc1=O	75

----------
experiment.notes: Pharmacokinetics in Rhesus monkeys
Assay type: in vivo
measurement.conditions: rhesus monkey, in vivo, single oral dose 33.3 mg/kg, Mean ± SD, preliminary, read-out: T ½ (converted)
property: half-life

C[C@@]1(F)[C@H](O)[C@@H](CO)O[C@H]1n1ccc(N)nc1=O 3.9 h

----------
System: MDCK cells
experiment.notes: Cytotoxicity (CPE, Neutral Red) in MDCK cells of the antiviral tests
measurement.conditions: read-out: CC50, CPE; MDCK, Influenza B test
property: CC50

C[C@@]1(F)[C@H](O)[C@@H](CO)O[C@H]1n1ccc(N)nc1=O > 100 µM

----------
experiment.notes: Cytotoxicity assay (MTS), CEM
Assay type: cell-based
measurement.conditions: human, CEM cells
Protocol: 50 μl of 2× drug dilutions were added per well in a 96 well plate. Final concentrations of drug ranged from 1 to 100 μM. A “no drug” (media only) control was used to determine the minimum absorbance values and a “cells+media only” control was used for maximum absorbance value. A solvent control was also used. […] The absorbance (490 nm) was then read on an ELISA plate reader using the media only/no cell wells as blanks. […]
property: CC50 at 3 days

C[C@@]1(F)[C@H](O)[C@@H](CO)O[C@H]1n1ccc(N)nc1=O > 100 µM

----------
System: West Nile virus
experiment.notes: Antiviral activity, West Nile virus in Vero cells
Type: cell-based
measurement.conditions: West Nile virus; West Nile, Vero; NR = Neutral Red; read-out: EC50, NR
property: EC50 (µM)

C[C@@]1(F)[C@H](O)[C@@H](CO)O[C@H]1n1ccc(N)nc1=O 12

----------
experiment.notes: Cytotoxicity assay (MTS), Vero
Assay type: cell-based
measurement.conditions: African green monkey, Vero cells
property: CC50 at 4 days

C[C@@]1(F)[C@H](O)[C@@H](CO)O[C@H]1n1ccc(N)nc1=O > 100 µM

----------
System: Vero cells
measurement.conditions: read-out: CC50, CPE; Vero, SARSCoV test
property: CC50

C[C@@]1(F)[C@H](O)[C@@H](CO)O[C@H]1n1ccc(N)nc1=O > 100 µM

----------
experiment.notes: Cytotoxicity assay (MTS), PBM
Format: cell-based
measurement.conditions: PBM cells
property: CC50 at 5 days

C[C@@]1(F)[C@H](O)[C@@H](CO)O[C@H]1n1ccc(N)nc1=O > 100 µM

----------
Below, each entry is listed alongside its reported CC50 at 4 days.
experiment.notes: Cytotoxicity assay (MTS), MDBK
Type: cell-based
measurement.conditions: bovine, MDBK cells
property: CC50 at 4 days

C[C@@]1(O)[C@H](O)[C@@H](CO)O[C@H]1n1ccc(N)nc1=O > 100 µM
C[C@@]1(F)[C@H](O)[C@@H](CO)O[C@H]1n1ccc(N)nc1=O > 100 µM

----------
Tested on: Dengue Type 2
experiment.notes: Antiviral activity, Dengue Type 2 in Vero cells
Assay type: cell-based, Dengue virus
measurement.conditions: Dengue virus, Vero, Dengue Type 2, Vero; read-out: EC50, CPE
pEC50: −log10 of the molar value.
property: pEC50

C[C@@]1(F)[C@H](O)[C@@H](CO)O[C@H]1n1ccc(N)nc1=O 4.49

----------
In this section, each of the compounds is paired with its reported CC50.
experiment.notes: Cytotoxicity assay (MTS), all cell lines tested
Type: cell-based
measurement.conditions: human, bovine, African green monkey, Clone A, Huh7, HepG2, MDBK, PBM, CEM, Vero and MRC-5 cells; summary in text over all cell lines

compound	CC50
C[C@@]1(F)[C@H](O)[C@@H](CO)O[C@H]1n1ccc(N)nc1=O	75 to 100 µM
C[C@@]1(O)[C@H](O)[C@@H](CO)O[C@H]1n1ccc(N)nc1=O [2′-C-methylcytidine]	75 to 100 µM

----------
experiment.notes: Cytotoxicity (CPE, Neutral Red) in MDCK cells of the antiviral tests
measurement.conditions: dog, MDCK cells
property: CC50

C[C@@]1(F)[C@H](O)[C@@H](CO)O[C@H]1n1ccc(N)nc1=O > 100 µM

Data provenance: patent US10287311B2
